experiment: stability in rat intestinal fluid (LC-MS); format: in vitro ADME; details: 0.1 mg peptide, rat intestinal fluid (0.2 mg), 37° C.
Observed property: half-life (s)
Numbers only here, please. The scale is s.

If you can, please state the reported half-life value of Ac-RKKYKYRRK-NH2 [PIK, Arg-Lys-Lys-Tyr-Lys-Tyr-Arg-Arg-Lys] .
12
